- System: RXF 393 renal
- ASSAY PROCEDURE: NCI tumour cell line growth inhibition, 48 h
Provide the recorded GI50 for the entries that follow.

Lab note: S=C(Nc1ccccc1)c1ccccn1 gave GI50 of 40.3 µM

Input O=C(Oc1ccccc1)c1cc(O)c(O)c(O)c1 . Output GI50: 25.6 µM

Notebook: N#C/C(=C\c1cn(-c2ccccc2)c2ccccc12)C(=O)O , GI50 read as 28.7 µM

Lookup result for Cc1ccc(NC(=O)c2ccnc(C(F)(F)F)c2)cc1-c1cc(OCCO)nc(N2CCOCC2)c1 ; measured GI50: 1.94 µM

The reported GI50 of the molecule N#Cc1c(NC(=O)c2cccs2)[n+]([O-])c2ccccc2[n+]1[O-] was > 100 µM

Input O=C(O)C(/C=C/c1ccco1)=N\Nc1nc(-c2ccc(Cl)cc2)cs1 . Output GI50: 10.4 µM
